TGT: NQR (Pseudomonas aeruginosa, UniProt Q9HZK7+Q9HZK9)
Construct: native NQR complex in LB and mAUM membranes; with six-subunit complex NqrA-F
Sequence (Q9HZK9 whole entry): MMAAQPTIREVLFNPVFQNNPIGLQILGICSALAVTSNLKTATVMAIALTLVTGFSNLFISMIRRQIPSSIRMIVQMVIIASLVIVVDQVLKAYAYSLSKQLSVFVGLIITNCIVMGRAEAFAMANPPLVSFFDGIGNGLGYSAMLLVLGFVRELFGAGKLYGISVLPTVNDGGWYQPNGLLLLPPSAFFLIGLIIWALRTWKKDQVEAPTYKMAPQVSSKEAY
Sequence (Q9HZL1 whole entry, further chain): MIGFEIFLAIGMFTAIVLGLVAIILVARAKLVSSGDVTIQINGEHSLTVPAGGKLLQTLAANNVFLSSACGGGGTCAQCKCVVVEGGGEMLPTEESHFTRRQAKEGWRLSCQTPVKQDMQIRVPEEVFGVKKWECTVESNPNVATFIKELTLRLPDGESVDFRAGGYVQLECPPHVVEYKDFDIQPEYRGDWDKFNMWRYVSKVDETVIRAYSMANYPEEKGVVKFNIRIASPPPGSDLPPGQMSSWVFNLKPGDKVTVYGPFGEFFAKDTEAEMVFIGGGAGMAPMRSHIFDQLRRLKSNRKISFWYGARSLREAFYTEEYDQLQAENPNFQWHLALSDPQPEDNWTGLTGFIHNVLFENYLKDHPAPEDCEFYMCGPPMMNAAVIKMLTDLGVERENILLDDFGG
Sequence (Q9HZK7 whole entry): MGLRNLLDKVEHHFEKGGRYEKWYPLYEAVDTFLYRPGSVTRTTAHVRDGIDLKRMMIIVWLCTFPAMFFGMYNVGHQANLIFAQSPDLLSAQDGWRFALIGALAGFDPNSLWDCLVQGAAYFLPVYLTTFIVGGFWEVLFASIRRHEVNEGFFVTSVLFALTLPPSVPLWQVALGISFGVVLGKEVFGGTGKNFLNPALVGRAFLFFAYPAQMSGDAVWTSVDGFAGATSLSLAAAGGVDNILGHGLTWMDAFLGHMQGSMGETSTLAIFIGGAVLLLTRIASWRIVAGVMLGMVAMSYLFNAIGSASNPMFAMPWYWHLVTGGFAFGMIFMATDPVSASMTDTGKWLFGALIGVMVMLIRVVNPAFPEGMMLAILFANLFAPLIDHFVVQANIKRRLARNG
Sequence (Q9HZK6 whole entry, further chain): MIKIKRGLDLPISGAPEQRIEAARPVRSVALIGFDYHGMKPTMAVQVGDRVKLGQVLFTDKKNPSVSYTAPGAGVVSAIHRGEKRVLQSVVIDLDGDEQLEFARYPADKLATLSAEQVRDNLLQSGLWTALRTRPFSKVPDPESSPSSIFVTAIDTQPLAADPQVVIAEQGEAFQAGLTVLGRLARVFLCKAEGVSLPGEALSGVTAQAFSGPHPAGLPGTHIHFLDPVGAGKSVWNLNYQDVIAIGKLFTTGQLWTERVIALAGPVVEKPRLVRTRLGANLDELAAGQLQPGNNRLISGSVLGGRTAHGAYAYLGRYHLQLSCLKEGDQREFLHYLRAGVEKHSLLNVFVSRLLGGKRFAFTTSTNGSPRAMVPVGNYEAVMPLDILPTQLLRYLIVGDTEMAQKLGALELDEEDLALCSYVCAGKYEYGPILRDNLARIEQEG
Sequence (Q9HZL0 whole entry, further chain): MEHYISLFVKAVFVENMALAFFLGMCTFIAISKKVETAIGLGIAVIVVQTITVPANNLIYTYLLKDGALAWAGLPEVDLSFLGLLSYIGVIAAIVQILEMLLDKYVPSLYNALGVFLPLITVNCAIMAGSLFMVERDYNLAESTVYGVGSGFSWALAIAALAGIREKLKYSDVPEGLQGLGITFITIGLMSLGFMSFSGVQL
Sequence (Q9HZK8 whole entry, further chain): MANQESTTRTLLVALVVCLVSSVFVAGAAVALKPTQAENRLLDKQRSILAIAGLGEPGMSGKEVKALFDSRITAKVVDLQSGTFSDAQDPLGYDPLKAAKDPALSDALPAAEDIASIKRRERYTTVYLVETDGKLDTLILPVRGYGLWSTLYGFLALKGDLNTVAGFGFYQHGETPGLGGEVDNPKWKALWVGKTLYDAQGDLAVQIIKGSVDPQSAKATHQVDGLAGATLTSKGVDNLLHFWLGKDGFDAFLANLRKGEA
ASSAY_DETAILS: HQNO titration of NADH-dependent oxygen consumption in isolated membranes
MEASURED_ENDPOINT: Ki (nM)
Give bare numbers, in nM.

Req: For the compound shown here, CCCCCCCc1cc(O)c2ccccc2[n+]1[O-] , give the reported Ki.
Resp: 2000
